Test system: Escherichia coli TOP10;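 note: peptides expressed intracellularly from a pBAD plasmid library in pooled LB shake-flask culture, induced with 0.3% L-arabinose, DNA abundance read by NGS, three biological replicates, DESeq2 with apeglm shrinkage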
Test: shrunken log2 fold change of peptide-encoding DNA abundance (4.5 h post-induction vs induction); higher = less antimicrobial activity (less host growth inhibition)
Conditions: time post-induction: 4.5 h; library: site-saturation at positions 5, 18, 19, 20
Mark satisfied for reported shrunken log2 fold change of -0.1 or greater; mark not satisfied for anything smaller.

1. RRIRVRPPRLPRPRPRPHSMPRP	not satisfied
2. RRIRNRPPRLPRPRPRPPCLPRP	not satisfied
3. RRIRKRPPRLPRPRPRPMGHPRP	satisfied
4. RRIRCRPPRLPRPRPRPDFGPRP	not satisfied
5. RRIRYRPPRLPRPRPRPSCFPRP	not satisfied
6. RRIRCRPPRLPRPRPRPMTLPRP	not satisfied
7. RRIRGRPPRLPRPRPRPMMYPRP	satisfied
8. RRIRVRPPRLPRPRPRPNFTPRP	satisfied
9. RRIRPRPPRLPRPRPRPSGKPRP	not satisfied
10. RRIRERPPRLPRPRPRPSFAPRP	not satisfied
11. RRIRLRPPRLPRPRPRPCDCPRP	satisfied
12. RRIRQRPPRLPRPRPRPVQDPRP	satisfied
13. RRIRPRPPRLPRPRPRPQPHPRP	satisfied
14. RRIRVRPPRLPRPRPRPLRRPRP	satisfied
15. RRIRHRPPRLPRPRPRPPAQPRP	satisfied
16. RRIRWRPPRLPRPRPRPNKMPRP	satisfied
17. RRIRTRPPRLPRPRPRPYKQPRP	satisfied
18. RRIRDRPPRLPRPRPRPKGYPRP	satisfied
19. RRIRYRPPRLPRPRPRPWQKPRP	not satisfied
20. RRIRTRPPRLPRPRPRPTWTPRP	not satisfied
21. RRIRMRPPRLPRPRPRPVMTPRP	satisfied
22. RRIRMRPPRLPRPRPRPIEQPRP	satisfied
23. RRIRVRPPRLPRPRPRPVIGPRP	satisfied
24. RRIRCRPPRLPRPRPRPSDMPRP	not satisfied
25. RRIRTRPPRLPRPRPRPKHKPRP	not satisfied
26. RRIRMRPPRLPRPRPRPQCTPRP	satisfied
27. RRIRTRPPRLPRPRPRPYQLPRP	not satisfied
28. RRIRTRPPRLPRPRPRPYMSPRP	satisfied
29. RRIRKRPPRLPRPRPRPHNQPRP	satisfied
30. RRIRCRPPRLPRPRPRPGAKPRP	satisfied
31. RRIRMRPPRLPRPRPRPVPWPRP	satisfied
32. RRIRPRPPRLPRPRPRPFFHPRP	not satisfied
33. RRIRERPPRLPRPRPRPGAVPRP	satisfied
34. RRIRERPPRLPRPRPRPSHNPRP	not satisfied
35. RRIRGRPPRLPRPRPRPGCVPRP	satisfied
36. RRIRMRPPRLPRPRPRPRYEPRP	satisfied
37. RRIRMRPPRLPRPRPRPAPCPRP	satisfied
38. RRIRFRPPRLPRPRPRPLTQPRP	not satisfied

The reported numbers originate from the supplement of paper PMC9112550.
